The reported numbers originate from ChEMBL document CHEMBL1136907.

# assay_text: Inhibition of rat liver CK2 by Lineweaver-Burke double reciprocal plot analysis
quantity_measured: pKi
In textbook form, pKi equals minus log to base ten of the concentration in mol/L.

// query pKi value for entry O=c1oc2c(O)c(O)cc3c(=O)oc4c(O)c(O)cc1c4c23 [ELLAGIC ACID] 7.70
